IC50 overview
- Test system: PI3Kδ (Homo sapiens (Human))
- Test details: TR-FRET enzymatic assay of PI3K isoforms (PI3Kδ)
- Experimental context: 2×Km ATP, 2 μM PIP2, incubated for 30 minutes at 25° C., read-out: δ IC50

[
  {
    "Smiles entry": "Cc1ccccc1NC(=O)Nc1cccc(-n2c([C@H](C)Nc3ncnc(N)c3C#N)nc3cccc(Cl)c3c2=O)c1",
    "Test system": "PI3Kδ (Homo sapiens (Human))",
    "Unit spec": "nM",
    "IC50": 6
  },
  {
    "Smiles entry": "CCNC(=O)Nc1cc(-n2c([C@H](C)Nc3ncnc(N)c3C#N)nc3cccc(Cl)c3c2=O)ccc1F",
    "Test system": "PI3Kδ (Homo sapiens (Human))",
    "Unit spec": "nM",
    "IC50": 32
  },
  {
    "Smiles entry": "CCNC(=O)Nc1cccc(-n2c([C@H](C)Nc3ncnc(N)c3C#N)nc3cccc(OC)c3c2=O)c1",
    "Test system": "PI3Kδ (Homo sapiens (Human))",
    "Unit spec": "nM",
    "IC50": 880
  },
  {
    "Smiles entry": "N#Cc1c(N)ncnc1N1CCC[C@H]1c1nc2cccc(Cl)c2c(=O)n1-c1cccc(NC(=O)NCC2OCCO2)c1",
    "Test system": "PI3Kδ (Homo sapiens (Human))",
    "Unit spec": "nM",
    "IC50": 16
  },
  {
    "Smiles entry": "C[C@H](Nc1ncnc(N)c1C#N)c1nc2cccc(Cl)c2c(=O)n1-c1cccc(NC(=O)NS(=O)(=O)C2CCCC2)c1",
    "Test system": "PI3Kδ (Homo sapiens (Human))",
    "Unit spec": "nM",
    "IC50": 2
  },
  {
    "Smiles entry": "CC[C@H](Nc1nc(N)nc(N)c1Cl)c1nc2c(Cl)ccc(Cl)c2c(=O)n1-c1cccc(C(N)=O)c1",
    "Test system": "PI3Kδ (Homo sapiens (Human))",
    "Unit spec": "nM",
    "IC50": 3
  },
  {
    "Smiles entry": "N#Cc1c(N)nc(N)nc1N[C@H](c1nc2c(Cl)ccc(Cl)c2c(=O)n1-c1cccc(C(N)=O)c1)C1CC1",
    "Test system": "PI3Kδ (Homo sapiens (Human))",
    "Unit spec": "nM",
    "IC50": 0.3
  }
]

---

- Test system: PI3Kδ (Homo sapiens (Human), UniProt O00329)
- Sequence (O00329 whole entry, canonical isoform): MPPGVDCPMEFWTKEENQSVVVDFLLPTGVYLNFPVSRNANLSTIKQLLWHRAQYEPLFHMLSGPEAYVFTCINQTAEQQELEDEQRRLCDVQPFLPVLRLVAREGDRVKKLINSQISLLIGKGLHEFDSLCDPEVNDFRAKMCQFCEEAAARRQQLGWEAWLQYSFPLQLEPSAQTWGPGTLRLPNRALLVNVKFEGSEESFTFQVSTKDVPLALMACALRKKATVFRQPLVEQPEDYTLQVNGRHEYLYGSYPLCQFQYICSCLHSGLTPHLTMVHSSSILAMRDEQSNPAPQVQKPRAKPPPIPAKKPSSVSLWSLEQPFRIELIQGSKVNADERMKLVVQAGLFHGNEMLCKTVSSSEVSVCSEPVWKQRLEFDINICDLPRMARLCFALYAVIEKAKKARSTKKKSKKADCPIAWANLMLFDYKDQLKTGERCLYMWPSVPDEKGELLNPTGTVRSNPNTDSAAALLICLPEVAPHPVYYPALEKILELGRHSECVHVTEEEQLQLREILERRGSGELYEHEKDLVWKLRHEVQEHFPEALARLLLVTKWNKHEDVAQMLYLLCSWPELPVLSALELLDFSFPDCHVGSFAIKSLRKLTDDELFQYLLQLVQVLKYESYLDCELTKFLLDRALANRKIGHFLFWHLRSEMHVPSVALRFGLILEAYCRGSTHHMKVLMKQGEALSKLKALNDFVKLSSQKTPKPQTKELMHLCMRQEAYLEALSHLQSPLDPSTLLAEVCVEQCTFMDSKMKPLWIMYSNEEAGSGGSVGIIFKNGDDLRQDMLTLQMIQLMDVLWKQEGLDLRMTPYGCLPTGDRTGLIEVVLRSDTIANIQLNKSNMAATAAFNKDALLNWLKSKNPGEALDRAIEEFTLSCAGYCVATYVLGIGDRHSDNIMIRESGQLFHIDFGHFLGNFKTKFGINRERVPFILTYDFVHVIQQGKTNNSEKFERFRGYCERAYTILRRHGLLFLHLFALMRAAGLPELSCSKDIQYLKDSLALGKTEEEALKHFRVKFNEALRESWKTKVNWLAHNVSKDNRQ
- Sequence (P27986 whole entry partner, canonical isoform): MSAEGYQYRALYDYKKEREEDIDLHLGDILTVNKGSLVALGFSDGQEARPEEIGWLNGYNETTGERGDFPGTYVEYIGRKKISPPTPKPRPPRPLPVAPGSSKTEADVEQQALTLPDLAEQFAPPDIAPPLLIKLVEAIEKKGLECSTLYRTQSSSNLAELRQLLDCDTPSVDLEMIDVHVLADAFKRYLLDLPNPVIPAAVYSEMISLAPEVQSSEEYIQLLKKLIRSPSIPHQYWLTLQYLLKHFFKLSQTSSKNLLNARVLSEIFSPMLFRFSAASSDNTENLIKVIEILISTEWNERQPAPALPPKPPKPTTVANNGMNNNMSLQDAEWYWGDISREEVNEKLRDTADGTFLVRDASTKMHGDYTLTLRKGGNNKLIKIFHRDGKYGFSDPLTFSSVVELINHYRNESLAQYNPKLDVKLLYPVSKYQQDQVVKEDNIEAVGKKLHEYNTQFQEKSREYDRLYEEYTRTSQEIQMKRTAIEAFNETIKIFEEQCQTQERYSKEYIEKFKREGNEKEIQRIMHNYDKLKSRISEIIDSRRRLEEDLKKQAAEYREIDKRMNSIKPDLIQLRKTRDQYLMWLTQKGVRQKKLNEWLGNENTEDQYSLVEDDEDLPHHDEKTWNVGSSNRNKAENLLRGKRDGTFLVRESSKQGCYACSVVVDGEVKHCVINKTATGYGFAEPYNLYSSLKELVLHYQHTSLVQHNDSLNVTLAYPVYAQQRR
- Test details: TR-FRET enzymatic assay of PI3K isoforms (PI3Kδ)
- Experimental context: 2×Km ATP, 2 μM PIP2, incubated for 30 minutes at 25° C., read-out: δ IC50
- Description: The compounds of formula (I) were characterized for their enzymatic activity against the PI3K isoforms. Certain compounds of the present application, including certain compounds of formula (II) and (III) were also characterized for their enzymatic activity against PI3K isoforms. The activities were measured using a time-resolved fluorescence resonance energy transfer (TR-FRET) assay.
pIC50: −log10 of the molar value. Where a name gives a salt, the structure may show the parent alone.
pIC50 below 8 gives 0; pIC50 at or above it gives 1.

[
  {
    "Molecule": "C[C@H](Nc1ncnc(N)c1C#N)c1nc2cccc(Cl)c2c(=O)n1-c1cccc(NC(=O)Nc2cccnc2)c1 [Compound 119, trifluoroacetic acid salt]",
    "Test system": "PI3Kδ (Homo sapiens (Human), UniProt O00329)",
    "Assigned class": 1
  },
  {
    "Molecule": "N#Cc1c(N)nc(N)nc1N[C@H](c1nc2cccc(Cl)c2c(=O)n1-c1cccc(C(N)=O)c1)C1CC1 [Compound 9]",
    "Test system": "PI3Kδ (Homo sapiens (Human), UniProt O00329)",
    "Assigned class": 1
  },
  {
    "Molecule": "N#Cc1c(N)nc(N)nc1N[C@H](c1nc2cccc(Cl)c2c(=O)n1-c1cc(F)cc(C(N)=O)c1)C1CC1 [Compound 161]",
    "Test system": "PI3Kδ (Homo sapiens (Human), UniProt O00329)",
    "Assigned class": 1
  },
  {
    "Molecule": "N#Cc1c(N)ncnc1N1CCC[C@H]1c1nc2cccc(Cl)c2c(=O)n1-c1cccc(NC(=O)NCC(F)(F)F)c1 [Compound 159]",
    "Test system": "PI3Kδ (Homo sapiens (Human), UniProt O00329)",
    "Assigned class": 0
  },
  {
    "Molecule": "N#Cc1c(N)nc(N)nc1N[C@H](c1nc2c(Cl)cc(F)cc2c(=O)n1-c1cccc(C(N)=O)c1)C1CC1 [Compound 27]",
    "Test system": "PI3Kδ (Homo sapiens (Human), UniProt O00329)",
    "Assigned class": 1
  },
  {
    "Molecule": "CCNC(=O)Nc1ccc(Cl)c(-n2c([C@H](C)Nc3ncnc(N)c3C#N)nc3cccc(Cl)c3c2=O)c1 (atropisomer, axis not shown) [Compound 58]",
    "Test system": "PI3Kδ (Homo sapiens (Human), UniProt O00329)",
    "Assigned class": 0
  },
  {
    "Molecule": "CC[C@H](Nc1nc(N)nc(N)c1C#N)c1nc2cccc(Cl)c2c(=O)n1-c1cccc(C(N)=O)c1 [Compound 8]",
    "Test system": "PI3Kδ (Homo sapiens (Human), UniProt O00329)",
    "Assigned class": 1
  },
  {
    "Molecule": "C[C@H](Nc1ncnc(N)c1C#N)c1nc2cccc(F)c2c(=O)n1-c1cccc(NC(=O)Nc2ccccc2Cl)c1 [Compound 108]",
    "Test system": "PI3Kδ (Homo sapiens (Human), UniProt O00329)",
    "Assigned class": 0
  },
  {
    "Molecule": "COc1ccccc1NC(=O)Nc1cccc(-n2c([C@H](C)Nc3ncnc(N)c3C#N)nc3cccc(Cl)c3c2=O)c1 [Compound 109]",
    "Test system": "PI3Kδ (Homo sapiens (Human), UniProt O00329)",
    "Assigned class": 1
  },
  {
    "Molecule": "CCNC(=O)Nc1cccc(-n2c([C@H](C)Nc3ncnc(N)c3C#N)nc3cccc(Cl)c3c2=O)c1Cl (single isomer, unassigned) [Compound 95]",
    "Test system": "PI3Kδ (Homo sapiens (Human), UniProt O00329)",
    "Assigned class": 1
  },
  {
    "Molecule": "COCCCNC(=O)Nc1cccc(-n2c([C@H](C)Nc3ncnc4[nH]cnc34)nc3cccc(Cl)c3c2=O)c1 [Compound 135]",
    "Test system": "PI3Kδ (Homo sapiens (Human), UniProt O00329)",
    "Assigned class": 0
  }
]

---

- Test system: UniProt P42338
- Sequence (P42338 whole entry, canonical isoform): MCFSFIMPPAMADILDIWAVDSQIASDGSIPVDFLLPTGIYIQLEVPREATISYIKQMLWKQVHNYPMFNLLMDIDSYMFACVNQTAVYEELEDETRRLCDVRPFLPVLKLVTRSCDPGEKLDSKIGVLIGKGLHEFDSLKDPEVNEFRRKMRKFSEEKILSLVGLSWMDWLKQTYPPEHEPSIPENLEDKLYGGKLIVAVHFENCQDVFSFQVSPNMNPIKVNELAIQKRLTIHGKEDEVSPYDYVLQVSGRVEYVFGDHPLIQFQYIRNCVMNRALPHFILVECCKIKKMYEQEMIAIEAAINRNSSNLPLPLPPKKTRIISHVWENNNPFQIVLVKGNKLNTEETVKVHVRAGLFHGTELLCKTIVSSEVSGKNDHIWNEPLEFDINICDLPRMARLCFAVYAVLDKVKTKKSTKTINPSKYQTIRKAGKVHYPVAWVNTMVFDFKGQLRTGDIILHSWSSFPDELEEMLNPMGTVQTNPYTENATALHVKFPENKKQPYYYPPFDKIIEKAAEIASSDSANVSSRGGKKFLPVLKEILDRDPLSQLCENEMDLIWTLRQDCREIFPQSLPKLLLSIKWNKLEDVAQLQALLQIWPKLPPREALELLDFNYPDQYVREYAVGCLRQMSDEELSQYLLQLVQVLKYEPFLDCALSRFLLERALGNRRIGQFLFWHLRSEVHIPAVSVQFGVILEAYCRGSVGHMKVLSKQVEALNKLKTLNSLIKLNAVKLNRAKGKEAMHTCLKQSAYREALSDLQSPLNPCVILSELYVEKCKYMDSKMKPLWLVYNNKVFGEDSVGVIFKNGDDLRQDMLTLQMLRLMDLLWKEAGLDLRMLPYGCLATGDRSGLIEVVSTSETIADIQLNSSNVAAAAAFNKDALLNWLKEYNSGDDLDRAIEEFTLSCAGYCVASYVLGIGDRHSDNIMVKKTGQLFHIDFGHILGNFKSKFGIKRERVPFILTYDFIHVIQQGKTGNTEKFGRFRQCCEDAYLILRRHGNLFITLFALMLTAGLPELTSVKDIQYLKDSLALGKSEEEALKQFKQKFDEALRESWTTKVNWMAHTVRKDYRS
- Sequence (P27986 whole entry partner, canonical isoform): as the sequence (P27986 whole entry partner, canonical isoform) above
- Test details: TR-FRET enzymatic assay of PI3K isoforms (PI3Kβ)
- Experimental context: TR-FRET, 2×Km ATP, 2 μM PIP2, incubated for 30 minutes at 25° C.; read-out: β IC50
pIC50: −log10 of the molar value. Structures can show the parent of a compound that is named as a salt.
Metric name: pIC50

[
  {
    "Compound": "C[C@H](Nc1ncnc(N)c1C#N)c1nc2cccc(Cl)c2c(=O)n1-c1cccc(NC(=O)NC(C)(C)CO)c1",
    "Test system": "UniProt P42338",
    "Measurement": 8.40
  },
  {
    "Compound": "CC(C)NC(=O)Nc1cc(-n2c([C@H](C)Nc3ncnc(N)c3C#N)nc3cccc(Cl)c3c2=O)ccc1F",
    "Test system": "UniProt P42338",
    "Measurement": 6.38
  },
  {
    "Compound": "C[C@H](Nc1ncnc2[nH]cnc12)c1nc2cccc(Cl)c2c(=O)n1-c1cccc(NC(N)=O)c1",
    "Test system": "UniProt P42338",
    "Measurement": 7.66
  },
  {
    "Compound": "C[C@H](Nc1ncnc2[nH]cnc12)c1nc2cccc(Cl)c2c(=O)n1-c1cccc(NC(=O)Nc2ccccc2S(C)(=O)=O)c1",
    "Test system": "UniProt P42338",
    "Measurement": 7.52
  },
  {
    "Compound": "CCNC(=O)Nc1ccc(C)c(-n2c([C@H](C)Nc3ncnc(N)c3C#N)nc3cccc(Cl)c3c2=O)c1 (atropisomer, axis not shown) [Compound 61]",
    "Test system": "UniProt P42338",
    "Measurement": 5.95
  },
  {
    "Compound": "CCC[C@H](Nc1nc(N)nc(N)c1C#N)c1nc2cccc(Cl)c2c(=O)n1-c1cccc(C(N)=O)c1",
    "Test system": "UniProt P42338",
    "Measurement": 8.15
  },
  {
    "Compound": "COCCCNC(=O)Nc1cccc(-n2c([C@H](C)Nc3ncnc(N)c3C#N)nc3cccc(Cl)c3c2=O)c1",
    "Test system": "UniProt P42338",
    "Measurement": 8.30
  },
  {
    "Compound": "C[C@H](Nc1ncnc(N)c1C#N)c1nc2cccc(Cl)c2c(=O)n1-c1cccc(NC(=O)Nc2ccccc2C#N)c1",
    "Test system": "UniProt P42338",
    "Measurement": 5.32
  },
  {
    "Compound": "C[C@H](Nc1ncnc(N)c1C#N)c1nc2cccc(Cl)c2c(=O)n1-c1cccc(NC(=O)Nc2ccncc2Cl)c1 [Compound 111, trifluoroacetic acid salt]",
    "Test system": "UniProt P42338",
    "Measurement": 8.40
  },
  {
    "Compound": "CCNC(=O)Nc1ccc(Cl)c(-n2c([C@H](C)Nc3ncnc(N)c3C#N)nc3cccc(Cl)c3c2=O)c1 (atropisomer, axis not shown) [Compound 59]",
    "Test system": "UniProt P42338",
    "Measurement": 6.21
  },
  {
    "Compound": "CCNC(=O)Nc1cccc(-n2c([C@H](C)Nc3ncnc(N)c3C#N)nc3cccc(C#N)c3c2=O)c1",
    "Test system": "UniProt P42338",
    "Measurement": 6.96
  },
  {
    "Compound": "C[C@H](Nc1ncnc(N)c1C#N)c1nc2cccc(Cl)c2c(=O)n1-c1cccc(NC(=O)NS(=O)(=O)C2CCCC2)c1",
    "Test system": "UniProt P42338",
    "Measurement": 7.15
  },
  {
    "Compound": "C[C@H](Nc1ncnc(N)c1C#N)c1nc2cccc(Cl)c2c(=O)n1-c1cccc(NC(=O)Nc2ccccc2OCCO)c1",
    "Test system": "UniProt P42338",
    "Measurement": 8.15
  },
  {
    "Compound": "C[C@H](Oc1ncnc2scnc12)c1nc2cccc(Cl)c2c(=O)n1-c1cccc(NC(=O)NCCO)c1",
    "Test system": "UniProt P42338",
    "Measurement": 8.05
  },
  {
    "Compound": "Cc1nc(N)nc(N[C@H](c2nc3c(Cl)ccc(Cl)c3c(=O)n2-c2cccc(C(N)=O)c2)C2CC2)c1C#N",
    "Test system": "UniProt P42338",
    "Measurement": 8.15
  },
  {
    "Compound": "C[C@H](Nc1ncnc(N)c1C#N)c1nc2cccc(Cl)c2c(=O)n1-c1cccc(NC(=O)Nc2ccc(Cl)c(C(F)(F)F)c2)c1",
    "Test system": "UniProt P42338",
    "Measurement": 8.10
  },
  {
    "Compound": "C[C@H](Nc1ncnc(N)c1C#N)c1nc2cccc(Cl)c2c(=O)n1-c1cccc(NC(=O)NC2CC2)c1",
    "Test system": "UniProt P42338",
    "Measurement": 8.15
  },
  {
    "Compound": "C[C@H](Nc1ncnc(N)c1C#N)c1nc2cccc(Cl)c2c(=O)n1-c1cccc(NC(=O)NCCN(C)C)c1 [Compound 116, trifluoroacetic acid salt]",
    "Test system": "UniProt P42338",
    "Measurement": 8.70
  },
  {
    "Compound": "NC(=O)c1cccc(-n2c([C@@H](Nc3nc(N)nc(N)c3Cl)C3CC3)nc3c(Cl)ccc(Cl)c3c2=O)c1",
    "Test system": "UniProt P42338",
    "Measurement": 7.43
  },
  {
    "Compound": "N#Cc1c(N)ncnc1N[C@@H](COCc1ccccc1)c1nc2cccc(Cl)c2c(=O)n1-c1cccc(NC(=O)NCCCO)c1",
    "Test system": "UniProt P42338",
    "Measurement": 7.62
  },
  {
    "Compound": "CCNC(=O)Nc1cccc(-n2c([C@H](C)Nc3ncnc(N)c3C#N)nc3c(F)cccc3c2=O)c1",
    "Test system": "UniProt P42338",
    "Measurement": 6.64
  },
  {
    "Compound": "C[C@H](Nc1nc(N)nc(N)c1C#N)c1nc2cccc(Cl)c2c(=O)n1-c1cccc(C(N)=O)c1",
    "Test system": "UniProt P42338",
    "Measurement": 8.22
  },
  {
    "Compound": "N#Cc1c(N)ncnc1N1CCC[C@H]1c1nc2cccc(Cl)c2c(=O)n1-c1cccc(NC(=O)NCC2OCCO2)c1",
    "Test system": "UniProt P42338",
    "Measurement": 7.54
  },
  {
    "Compound": "C[C@H](Nc1nc(N)nc(N)c1C#N)c1nc2c(Cl)ccc(Cl)c2c(=O)n1-c1cccc(C(N)=O)c1",
    "Test system": "UniProt P42338",
    "Measurement": 7.92
  },
  {
    "Compound": "CC(C)NC(=O)Nc1cccc(-n2c([C@H](C)Nc3ncnc(N)c3C#N)nc3cccc(Cl)c3c2=O)c1",
    "Test system": "UniProt P42338",
    "Measurement": 8.05
  },
  {
    "Compound": "CC[C@H](Nc1nc(N)nc(N)c1Cl)c1nc2c(Cl)ccc(Cl)c2c(=O)n1-c1cccc(C(N)=O)c1",
    "Test system": "UniProt P42338",
    "Measurement": 7.55
  },
  {
    "Compound": "C[C@H](Nc1ncnc(N)c1C#N)c1nc2cccc(Cl)c2c(=O)n1-c1cccc(NC(=O)NC2(C(F)(F)F)CC2)c1",
    "Test system": "UniProt P42338",
    "Measurement": 8.00
  }
]
